- System Under Test: GDP-bound KRAS wild-type protein (Homo sapiens, UniProt P01116)
- Sequence (P01116 1-188 isoform P01116-2): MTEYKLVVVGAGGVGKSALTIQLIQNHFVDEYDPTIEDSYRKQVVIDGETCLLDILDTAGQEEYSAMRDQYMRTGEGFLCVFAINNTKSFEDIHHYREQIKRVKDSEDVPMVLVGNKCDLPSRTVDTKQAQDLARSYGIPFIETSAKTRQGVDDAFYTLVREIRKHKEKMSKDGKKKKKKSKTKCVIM
- Assay Name: Binding to KRAS by surface plasmon resonance (SPR), dissociation constant KD
- Measurement Conditions: 1:1 binding model
pKd: −log10 of the molar value.
Readout Type: pKd

molecule="CCO[C@@H]1C[C@H]2C(=O)NC3(CCC3)C(=O)N(C)[C@@H](C(CC)CC)C(=O)N(C)[C@H](C(=O)N(C)C)CC(=O)N(C)[C@H]3CCCC/C=C/c4ccc(cc4)C[C@@H](C(=O)N(C)CC(=O)N[C@@H](CCc4ccc(Cl)c(Cl)c4)C(=O)N2C1)N1CC/C=C\\C[C@@H](C1=O)N(C)C(=O)CN(C1CC1)C(=O)[C@H]([C@@H](C)CC)NC3=O [PP2605]" readout_type=pKd test_value=9.47
molecule="CCO[C@@H]1C[C@H]2C(=O)NC3(CC(C)(C)C3)C(=O)N(C)[C@@H](C(CC)CC)C(=O)N(C)[C@H](C(=O)N(C)C)CC(=O)N(C)[C@H]3CC/C=C/c4ccc(cc4)C[C@@H](C(=O)N(C)CC(=O)N[C@@H](CCc4ccc(Cl)c(Cl)c4)C(=O)N2C1)N1CC/C=C\\C[C@@H](C1=O)N(C)C(=O)CN(C)C(=O)[C@H]([C@@H](C)CC)NC3=O [PP2589]" readout_type=pKd test_value=9.35
molecule="CC[C@H](C)[C@@H]1NC(=O)[C@H](COC)N(C)C(=O)C[C@@H](C(=O)N(C)C)N(C)C(=O)[C@H](C2CCCC2)N(C)C(=O)C2(CC(C)(C)C2)NC(=O)[C@@H]2C[C@@H](OC3CCC3)CN2C(=O)[C@H](CCc2cc(F)c(C(F)(F)F)c(F)c2)NC(=O)CN(C)C(=O)[C@H](CC2CCC(F)(F)CC2)N2CC/C=C\\C[C@@H](C2=O)N(C)C(=O)CN(C2CC2)C1=O [PP2622]" readout_type=pKd test_value=9.28
molecule="CCC[C@H]1C(=O)N[C@@H]([C@@H](C)CC)C(=O)N(C2CC2)CC(=O)N(C)[C@H]2C/C=C\\CCN(C2=O)[C@@H](CC2CCCCC2)C(=O)N(C)CC(=O)N[C@@H](CCc2ccc(C(F)(F)F)c(OC)c2)C(=O)N2C[C@@H](C)C[C@H]2C(=O)N(C)C2(CCC2)C(=O)N(C)[C@@H](C2CCCC2)C(=O)N(C)[C@H](C(=O)N(C)C)CC(=O)N1C [PP2372]" readout_type=pKd test_value=9.10
molecule="CCO[C@@H]1C[C@H]2C(=O)NC3(CC(C)(C)C3)C(=O)N(C)[C@@H](C(CC)CC)C(=O)N(C)[C@H](C(=O)N(C)C)CC(=O)N(C)[C@@H](CC3CC3)C(=O)N[C@@H]([C@@H](C)CC)C(=O)N(C)CC(=O)N(C)[C@H]3C/C=C\\CCN(C3=O)[C@@H](CC3CCC(F)(F)CC3)C(=O)N(C)CC(=O)N[C@@H](CCc3ccc(C(F)(F)F)c(Cl)c3)C(=O)N2C1 [PP2495]" readout_type=pKd test_value=9.08
molecule="CCO[C@@H]1C[C@H]2C(=O)NC3(CC(C)(C)C3)C(=O)N(C)[C@@H](C3CCCC3)C(=O)N(C)[C@H](C(=O)N(C)CC)CC(=O)N(C)[C@@H](COC)C(=O)N[C@@H]([C@@H](C)CC)C(=O)N(C)CC(=O)N(C)[C@H]3C/C=C\\CCN(C3=O)[C@@H](Cc3ccc(C)cc3)C(=O)N(C)CC(=O)N[C@@H](CCc3cc(F)c(C(F)(F)F)c(F)c3)C(=O)N2C1 [PP2396]" readout_type=pKd test_value=10.16

---

- Tested on: human lung cancer strain NCI-H441
- Assay type: cell-based
pIC50: −log10 of the molar value.
Readout Type: pIC50

chemical_string=CCCOC[C@H]1C(=O)N[C@@H]([C@@H](C)CC)C(=O)N(C)CC(=O)N(C)[C@H]2C/C=C\CCN(C2=O)[C@@H](Cc2ccc(C(F)(F)F)cc2)C(=O)N(C)CC(=O)N[C@@H](CCc2ccc(C(F)(F)F)c(OC)c2)C(=O)N2C[C@H](OCC)C[C@H]2C(=O)NC2(CCC2)C(=O)N(C)[C@@H](C2CCCC2)C(=O)N(C)[C@H](C(=O)N(C)CC)CC(=O)N1C system_under_test="human lung cancer strain NCI-H441" test_value=8.09
chemical_string=C=CCCC[C@H]1C(=O)N[C@@H]([C@@H](C)CC)C(=O)N(C)CC(=O)N(C)[C@H]2CCCCN(C2=O)[C@@H](Cc2ccc(C(F)(F)F)cc2)C(=O)N(C)CC(=O)N[C@@H](CCc2cc(F)c(C(F)(F)F)c(F)c2)C(=O)N2C[C@H](OCC)C[C@H]2C(=O)N[C@](C)(CC=C)C(=O)N(C)[C@@H](C2CCCC2)C(=O)N(C)[C@H](C(=O)N2CCOCC2)CC(=O)N1C system_under_test="human lung cancer strain NCI-H441" test_value=8.15

---

- System Under Test: GDP-bound KRAS wild-type protein (Homo sapiens)
- Assay Name: Binding to KRAS by surface plasmon resonance (SPR), dissociation constant KD
- Measurement Conditions: Single Cycle Kinetics
pKd: −log10 of the molar value.
Reported pKd values are given for each entry in this list.
Readout Type: pKd

molecule="CCO[C@@H]1C[C@H]2C(=O)NC3(CC(C)(C)C3)C(=O)N(C)[C@@H](C3CCCC3)C(=O)N(C)[C@H](C(=O)N(C)C)CC(=O)N(C)[C@@H]([C@H](C)OC)C(=O)N[C@@H]([C@@H](C)CC)C(=O)N(C3CC3)CC(=O)N(C)[C@H]3C/C=C\\CCN(C3=O)[C@@H](Cc3ccc(C(F)(F)F)cc3)C(=O)N(C)CC(=O)N[C@@H](CCc3ccc(C(F)(F)F)c(OC)c3)C(=O)N2C1 [PP3173]" system_under_test="GDP-bound KRAS wild-type protein (Homo sapiens)" readout_type=pKd test_value=9.24
molecule="C#CC[C@H]1C(=O)N[C@@H]([C@@H](C)CC)C(=O)N2CCCCC[C@H]2C(=O)N(C)[C@H]2C/C=C\\CCN(C2=O)[C@@H](Cc2ccc(C)cc2)C(=O)N(C)CC(=O)N[C@@H](CCc2ccc(C(F)(F)F)c(OC)c2)C(=O)N2C[C@H](OCC)C[C@H]2C(=O)N(C)C2(CCC2)C(=O)N(C)[C@@H](C2CCCC2)C(=O)N(C)[C@H](C(=O)N(C)C)CC(=O)N1C [PP3267]" system_under_test="GDP-bound KRAS wild-type protein (Homo sapiens)" readout_type=pKd test_value=8.30
molecule="CCC[C@H]1C(=O)N[C@@H]([C@@H](C)CC)C(=O)N(C2CC2)CC(=O)N(C)[C@H]2C/C=C\\CCN(C2=O)[C@@H](Cc2ccc(C(F)(F)F)cc2)C(=O)N(C)CC(=O)N[C@@H](CCc2ccc(C(F)(F)F)c(Cl)c2)C(=O)N2CC[C@H](OC)[C@H]2C(=O)N(C)C2(CCC2)C(=O)N(C)[C@@H](C2CCCC2)C(=O)N(C)[C@H](C(=O)N(C)C)CC(=O)N1C [PP3288]" system_under_test="GDP-bound KRAS wild-type protein (Homo sapiens)" readout_type=pKd test_value=9.68

---

- Test system: human lung cancer strain NCI-H441
- Assay type: cell-based
pIC50: −log10 of the molar value. *1 amine or outer side, *2 acyl side, *3 side chain or, on linkers, in order; H or OH if unused. Where a SMILES comes first, the peptide text is derived from it. Bridges are numbered along the chain shown (N, C = ends). [ ]: non-standard residue; d: D form. The star is where a group is joined. hPhe(3-Cl-4-CF3) = N[C@@H](CCc1ccc(C(F)(F)F)c(Cl)c1)C(=O)O; NPrPhe(4-CF3) = CCCN[C@@H](Cc1ccc(C(F)(F)F)cc1)C(=O)O; NMeGly(cPent) = CN[C@H](C(=O)O)C1CCCC1; X9 = CC1(C)CN([*:1])[C@@H]1C(=O)[*:2]; Hyp = O=C(O)[C@@H]1C[C@@H](O)CN1; NMeD = CN[C@@H](CC(=O)O)C(=O)O; NMeL = CN[C@@H](CC(C)C)C(=O)O; Morpholide = C1CN(*)CCO1; Ac5c = NC1(C(=O)O)CCCC1; Aze = O=C(O)[C@@H]1CCN1; Ac4c = NC1(C(=O)O)CCC1; NEtG = CCNCC(=O)O; Sar = CNCC(=O)O
Readout Type: pIC50

compound="CCCN1C(=O)CN(C)C(=O)CN(CC)C(=O)[C@H]([C@@H](C)CC)NC(=O)[C@H](CC(C)C)N(C)C(=O)C[C@@H](C(=O)N(C)C)N(C)C(=O)[C@H](C2CCCC2)N(C)C(=O)C2(CCC2)NC(=O)[C@@H]2C[C@@H](OCC)CN2C(=O)[C@H](CCc2ccc(C(F)(F)F)c(Cl)c2)NC(=O)CN(C)C(=O)[C@@H]1Cc1ccc(C(F)(F)F)cc1 [PP0428] ([NMeL]I[NEtG][Sar][NPrPhe(4-CF3)][Sar][hPhe(3-Cl-4-CF3)][Hyp](Et)[Ac4c][NMeGly(cPent)][NMeD]-NMe2; lactam N-11)" test_value=8.34
compound="CCCN1C(=O)[C@@H]2CCN2C(=O)[C@H]2N(CC2(C)C)C(=O)[C@H]([C@@H](C)CC)NC(=O)[C@H](CC(C)C)N(C)C(=O)C[C@@H](C(=O)N2CCOCC2)N(C)C(=O)[C@H](C2CCCC2)N(C)C(=O)C2(CCCC2)NC(=O)[C@@H]2CCCN2C(=O)[C@H](CCc2ccc(C(F)(F)F)c(Cl)c2)NC(=O)CN(C)C(=O)[C@@H]1Cc1ccc(C(F)(F)F)cc1 [PP0277] ([NMeL]I[X9][Aze][NPrPhe(4-CF3)][Sar][hPhe(3-Cl-4-CF3)]P[Ac5c][NMeGly(cPent)][NMeD]-Morpholide; lactam N-11)" test_value=8.17
compound=CCO[C@@H]1C[C@H]2C(=O)NC3(CCC3)C(=O)N(C)[C@@H](C(CC)CC)C(=O)N(C)[C@H](C(=O)N3CCOCC3)CC(=O)N(C)[C@@H](CC(C)C)C(=O)N[C@@H]([C@@H](C)CC)C(=O)N(C)CC(=O)N(C)[C@H]3CCCCN(C3=O)[C@@H](Cc3ccc(C(F)(F)F)cc3)C(=O)N(C)CC(=O)N[C@@H](CCc3cc(F)c(C(F)(F)F)c(F)c3)C(=O)N2C1 test_value=8.01
compound=CC[C@H](C)[C@@H]1NC(=O)[C@H](COC)N(C)C(=O)C[C@@H](C(=O)N(C)CC)N(C)C(=O)[C@H](C2CCCC2)N(C)C(=O)C2(CC(C)(C)C2)NC(=O)[C@@H]2C[C@@H](F)CN2C(=O)[C@H](CCc2cc(F)cc(F)c2)NC(=O)CN(C)C(=O)[C@H](Cc2ccc(C(F)(F)F)cc2)N2CC/C=C\C[C@@H](C2=O)N(C)C(=O)CN(C)C1=O test_value=6.30
compound=CC[C@H](C)[C@@H]1NC(=O)[C@H](CC(C)C)N(C)C(=O)C[C@@H](C(=O)N2C3CCC2COC3)N(C)C(=O)[C@H](C2CCCC2)N(C)C(=O)C2(CCCC2)NC(=O)[C@@H]2CCCN2C(=O)[C@H](CCc2cc(F)c(C(F)(F)F)c(F)c2)NC(=O)CN(C)C(=O)[C@H](Cc2ccc(C(F)(F)F)cc2)N2CCCC[C@@H](C2=O)N(C)C(=O)CN(C)C1=O test_value=8.06

Where do these numbers come from? They come from patent EP4603105A1.
